These data points were gathered from ChEMBL document CHEMBL4814046.

Experiment: Hemolytic activity in human RBC at 1 ug/ml incubated for 30 mins
Assay type: ADME, cell-based, Erythrocyte
Details: red blood cells (erythrocytes), at 1 µg/mL, read-out: Activity
*1 amine or outer side, *2 acyl side, *3 side chain or, on linkers, in order; H or OH if unused. Where a SMILES comes first, the peptide text is derived from it. [ ]: non-standard residue; d: D form. X1 = CC[C@@H](C)[C@@H](O[*:1])C(=O)[*:2]; NMeVal(β-OH) = CN[C@H](C(=O)O)C(C)(C)O; NMeF = CN[C@@H](Cc1ccccc1)C(=O)O; aIle = CC[C@@H](C)[C@H](N)C(=O)O; NMeV = CN[C@H](C(=O)O)C(C)C
Listing: hemolysis at 0.5 h, 1 ug/ml of selected compounds
Write it as a number; the unit % goes unstated.

[
  {
    "COMPOUND": "OC(Cn1cncn1)(Cn1cncn1)c1ccc(F)cc1F [FLUCONAZOLE]",
    "hemolysis at 0.5 h, 1 ug/ml / %": 18
  }
]

// next item, hemolysis at 0.5 h, 1 ug/ml requested
In: So what does the record say about hemolysis at 0.5 h, 1 ug/ml for CC[C@@H](C)[C@@H]1NC(=O)[C@@H]2CCCN2C(=O)[C@H](Cc2ccccc2)N(C)C(=O)[C@H](Cc2ccccc2)NC(=O)[C@H](C(C)C)N(C)C(=O)[C@@H]([C@H](C)CC)OC(=O)[C@H](C(C)(C)O)N(C)C(=O)[C@H](CC(C)C)NC(=O)[C@H](C(C)C)N(C)C1=O [AUREOBASIDIN A] (cyclo(F[NMeF]P[aIle][NMeV]L[NMeVal(β-OH)][X1][NMeV])) ?
Out: 0.31

* * *

Assay: Cytotoxicity against human HEK293 cells assessed as cell viability at 2 times MIC incubated for 24 hrs by MTT assay
Format: cell-based
Conditions: read-out: Activity
MEASURED PARAMETER: viability at 24 h, 2 times MIC (%)
Write it as a number; the unit % goes unstated.

In: So what does the record say about viability at 24 h, 2 times MIC for OC(Cn1cncn1)(Cn1cncn1)c1ccc(F)cc1F ?
Out: 88.6

* * *

Listing: viability at 24 h, 1 times MIC of selected compounds
Test: Cytotoxicity against human HEK293 cells assessed as cell survival at 1 times MIC incubated for 24 hrs by MTT assay
Format: cell-based
Conditions: read-out: Activity
*1 amine or outer side, *2 acyl side, *3 side chain or, on linkers, in order; H or OH if unused. Where a SMILES comes first, the peptide text is derived from it. [ ]: non-standard residue; d: D form. X1 = CC[C@@H](C)[C@@H](O[*:1])C(=O)[*:2]; NMeVal(β-OH) = CN[C@H](C(=O)O)C(C)(C)O; NMeF = CN[C@@H](Cc1ccccc1)C(=O)O; aIle = CC[C@@H](C)[C@H](N)C(=O)O; NMeV = CN[C@H](C(=O)O)C(C)C
Write it as a number; the unit % goes unstated.

[
  {
    "COMPOUND": "OC(Cn1cncn1)(Cn1cncn1)c1ccc(F)cc1F [FLUCONAZOLE]",
    "UNIT OF MEASURE": "%",
    "viability at 24 h, 1 times MIC": 95.5
  }
]

// next item, viability at 24 h, 1 times MIC requested
In: So what does the record say about viability at 24 h, 1 times MIC for CC[C@@H](C)[C@@H]1NC(=O)[C@@H]2CCCN2C(=O)[C@H](Cc2ccccc2)N(C)C(=O)[C@H](Cc2ccccc2)NC(=O)[C@H](C(C)C)N(C)C(=O)[C@@H]([C@H](C)CC)OC(=O)[C@H](C(C)(C)O)N(C)C(=O)[C@H](CC(C)C)NC(=O)[C@H](C(C)C)N(C)C1=O [AUREOBASIDIN A] (cyclo(F[NMeF]P[aIle][NMeV]L[NMeVal(β-OH)][X1][NMeV])) ?
Out: 75
